System: Macrophage
Assay: Reduction of IL6 production in IFN-gamma-stimulated BALB/c mouse peritoneal macrophages infected with Leishmania major MHOM/IL/81/FE/BNI promastigotes at 3 uM after 24 hrs by sandwich ELISA
Assay type: functional, cell-based
Calls of active or inactive are those of the source. The rule behind the calls is not given here.
MEASURED METRIC: Activity

- RECORD SMILES: "COc1cc(OC)c2c(C)[n+](-c3c(C)cccc3C)c(C)cc2c1.F[B-](F)(F)F"
  DATA VALUE: "Active"
- RECORD SMILES: "COc1cc(OC)c2c(C)[n+](-c3ccc(C(C)C)cc3)c(C)cc2c1.O=C([O-])C(F)(F)F"
  DATA VALUE: "Active"
- RECORD SMILES: "COc1cc(OC)c2c(C)[n+](-c3cccc4ccccc34)c(C)cc2c1"
  DATA VALUE: "Active"
- RECORD SMILES: "COc1cc(OC)c2c(C)[n+](-c3ccc(C)cc3)c(C)cc2c1.F[B-](F)(F)F"
  DATA VALUE: "Active"

====

Assay: Cytotoxicity against BALB/c mouse peritoneal macrophages after 48 hrs by alamar blue assay
Type: cell-based
Conditions: Macrophage
MEASURED METRIC: pIC50
# log scale: pIC50 equals minus log10 of the concentration in mol/L

Take a look at these entries with their results.
- RECORD SMILES: "COc1cc(OC)c2c(C)[n+](-c3ccc(C(C)C)cc3)c(C)cc2c1.O=C([O-])C(F)(F)F"
  pIC50: 5.06
- RECORD SMILES: "COc1cc(OC)c2c(C)[n+](-c3c(C)cccc3C)c(C)cc2c1.F[B-](F)(F)F"
  pIC50: 5.01

Continue with the compound presented below.
Q: // returns reported pIC50 for input "COc1cc(OC)c2c(C)[n+](-c3ccc(C)cc3)c(C)cc2c1.F[B-](F)(F)F"
Result: 4.89

====

Test: Antiproliferative activity against mouse J774.1 cells after 48 hrs by alamar blue assay
Type: cell-based
Settings: j774.1
MEASURED METRIC: pIC50
# log scale: pIC50 equals minus log10 of the concentration in mol/L

Q: // returns reported pIC50 for input "COc1cc(OC)c2c(C)[n+](-c3cccc4cc5ccccc5cc34)c(C)cc2c1.F[B-](F)(F)F"
Result: 5.53

====

Assay: Cytotoxicity against BALB/c mouse DC after 48 hrs by alamar blue assay
MEASURED METRIC: IC50 (µM)
Provide the reading as a plain figure in µM.

- RECORD SMILES: "COc1cc(OC)c2c(C)[n+](-c3ccc(C(C)C)cc3)c(C)cc2c1.O=C([O-])C(F)(F)F"
  UNIT ABBREV: "µM"
  IC50: 7.6
- RECORD SMILES: "COc1cc(OC)c2c(C)[n+](-c3ccc(C)cc3)c(C)cc2c1.F[B-](F)(F)F"
  UNIT ABBREV: "µM"
  IC50: 24

Q: // returns reported IC50 for input "COc1cc(OC)c2c(C)[n+](-c3c(C)cccc3C)c(C)cc2c1.F[B-](F)(F)F"
Result: 8.76

====

Parameter fraction unbound: see the listing below.
Target: Albumin (Bos taurus, UniProt P02769)
Sequence (P02769 whole entry): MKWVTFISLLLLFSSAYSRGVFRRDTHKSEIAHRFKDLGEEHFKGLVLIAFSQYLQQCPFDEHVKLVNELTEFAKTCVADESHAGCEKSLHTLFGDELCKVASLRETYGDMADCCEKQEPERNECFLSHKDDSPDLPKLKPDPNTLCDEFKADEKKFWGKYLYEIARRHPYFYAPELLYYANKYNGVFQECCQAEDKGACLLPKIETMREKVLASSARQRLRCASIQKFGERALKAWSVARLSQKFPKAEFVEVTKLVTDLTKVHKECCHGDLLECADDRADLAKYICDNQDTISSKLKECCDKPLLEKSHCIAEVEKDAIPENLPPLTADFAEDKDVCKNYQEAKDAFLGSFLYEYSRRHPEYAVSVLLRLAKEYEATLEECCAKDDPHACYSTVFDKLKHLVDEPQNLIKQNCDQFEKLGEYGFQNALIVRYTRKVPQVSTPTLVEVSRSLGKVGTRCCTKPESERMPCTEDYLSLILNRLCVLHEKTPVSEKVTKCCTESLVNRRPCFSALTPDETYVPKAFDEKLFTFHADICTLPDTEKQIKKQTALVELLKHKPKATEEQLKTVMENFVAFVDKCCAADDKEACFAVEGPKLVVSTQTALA
Assay: Binding affinity to bovine serum albumin by ultrafiltration method
Format: ADME
Details: cattle, bovine serum albumin; read-out: PPB (converted)
API note: the answer field is a bare number with no unit suffix.

Take a look at these entries with their results.
- RECORD SMILES: "COc1cc(OC)c2c(C)[n+](-c3ccc(C)cc3)c(C)cc2c1.F[B-](F)(F)F"
  DATA VALUE: 0.441
- RECORD SMILES: "COc1cc(OC)c2c(C)[n+](-c3ccc4scnc4c3)c(C)cc2c1"
  DATA VALUE: 0.671
- RECORD SMILES: "CCc1ccc(-[n+]2c(C)cc3cc(OC)cc(OC)c3c2C)cc1"
  DATA VALUE: 0.475
- RECORD SMILES: "COc1cc(OC)c2c(C)[n+](-c3ccc(C(C)C)cc3)c(C)cc2c1.O=C([O-])C(F)(F)F"
  DATA VALUE: 0.297
- RECORD SMILES: "COc1cc(OC)c2c(C)[n+](-c3ccc(C(C)C)cc3C(C)C)c(C)cc2c1"
  DATA VALUE: 0.416

Continue with the molecule presented below.
Q: // returns reported fraction unbound for input "COc1cc(OC)c2c(C)[n+](-c3c(C)cccc3C)c(C)cc2c1.F[B-](F)(F)F"
Result: 0.538

====

Assay: Ratio of IC50 for BALB/c mouse peritoneal macrophages to EC50 for Leishmania major MHOM/IL/81/FE/BNI promastigotes
MEASURED METRIC: Ratio IC50/EC50

- COMPOUND: "C[C@@H]1[C@H](O)[C@@H](C)/C=C/C=C/C=C/C=C/C=C/C=C/C=C/[C@H](O[C@@H]2O[C@H](C)[C@@H](O)[C@H](N)[C@@H]2O)C[C@@H]2O[C@](O)(C[C@@H](O)C[C@@H](O)[C@H](O)CC[C@@H](O)C[C@@H](O)CC(=O)O[C@H]1C)C[C@H](O)[C@H]2C(=O)O [AMPHOTERICIN B]"
  Ratio IC50/EC50: ">1000"
- COMPOUND: "COc1cc(OC)c2c(C)[n+](-c3ccc(C)cc3)c(C)cc2c1.F[B-](F)(F)F"
  Ratio IC50/EC50: 138
- COMPOUND: "COc1cc(OC)c2c(C)[n+](-c3ccc(C(C)C)cc3)c(C)cc2c1.O=C([O-])C(F)(F)F"
  Ratio IC50/EC50: 56

Q: // returns reported Ratio IC50/EC50 for input "COc1cc(OC)c2c(C)[n+](-c3c(C)cccc3C)c(C)cc2c1.F[B-](F)(F)F"
Result: 40

====

Target: Cytochrome P450 2D6 (Homo sapiens, UniProt P10635)
Sequence (P10635 whole entry): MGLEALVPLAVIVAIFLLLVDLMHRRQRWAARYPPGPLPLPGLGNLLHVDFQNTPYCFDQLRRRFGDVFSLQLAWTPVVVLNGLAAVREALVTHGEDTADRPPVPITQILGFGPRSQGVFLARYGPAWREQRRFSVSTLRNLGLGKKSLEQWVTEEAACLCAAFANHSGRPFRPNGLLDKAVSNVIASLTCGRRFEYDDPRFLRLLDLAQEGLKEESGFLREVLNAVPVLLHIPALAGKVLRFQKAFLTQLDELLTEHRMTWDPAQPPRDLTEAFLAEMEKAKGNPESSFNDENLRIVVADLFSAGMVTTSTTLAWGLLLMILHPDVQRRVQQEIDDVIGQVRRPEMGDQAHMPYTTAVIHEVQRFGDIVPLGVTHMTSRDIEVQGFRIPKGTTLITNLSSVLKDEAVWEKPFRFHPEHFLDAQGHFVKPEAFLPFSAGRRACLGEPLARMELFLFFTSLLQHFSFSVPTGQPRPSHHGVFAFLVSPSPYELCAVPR
Experiment: Inhibition of human CYP2D6 at 1 to 100 uM by LC/ESI-MS analysis
Type: ADME
MEASURED METRIC: Activity

- RECORD SMILES: "COc1cc(OC)c2c(C)[n+](-c3ccc(C(C)C)cc3)c(C)cc2c1.O=C([O-])C(F)(F)F"
  MEASURED METRIC: "Activity"
  DATA VALUE: "Active"
- RECORD SMILES: "COc1cc(OC)c2c(C)[n+](-c3cccc4ccccc34)c(C)cc2c1.[O-][Cl+3]([O-])([O-])[O-]"
  MEASURED METRIC: "Activity"
  DATA VALUE: "Active"
- RECORD SMILES: "COc1cc(OC)c2c(C)[n+](-c3ccc(C)cc3)c(C)cc2c1.F[B-](F)(F)F"
  MEASURED METRIC: "Activity"
  DATA VALUE: "Active"

====

Test: Selectivity index, ratio of IC50 for mouse J774.1 cells to IC50 for Leishmania major MHOM/IL/81/FE/BNI promastigotes
Type: toxicity
Settings: J774.1 cells, read-out: Ratio IC50
Parameter selectivity ratio: see the listing below.

Take a look at these entries with their results.
- COMPOUND: "COc1cc(OC)c2c(C)[n+](-c3ccc(C)cc3)c(C)cc2c1.F[B-](F)(F)F"
  MEASURED METRIC: "selectivity ratio"
  DATA VALUE: 5.55
- COMPOUND: "COc1cc(OC)c2c(C)[n+](-c3ccc(C(C)(C)C)cc3)c(C)cc2c1"
  MEASURED METRIC: "selectivity ratio"
  DATA VALUE: 1.6

Q: // returns reported selectivity ratio for input "COc1cc(OC)c2c(C)[n+](-c3ccc(C(C)C)cc3C(C)C)c(C)cc2c1"
Result: 4.17

Q: // returns reported selectivity ratio for input "CCc1ccc(-[n+]2c(C)cc3cc(OC)cc(OC)c3c2C)cc1"
Result: < 1

Q: // returns reported selectivity ratio for input "CCCCc1ccc(-[n+]2c(C)cc3cc(OC)cc(OC)c3c2C)cc1"
Result: < 1

Q: // returns reported selectivity ratio for input "COc1cc(OC)c2c(C)[n+](-c3c(C)cccc3C)c(C)cc2c1.F[B-](F)(F)F"
Result: 7.82

Q: // returns reported selectivity ratio for input "COc1cc(OC)c2c(C)[n+](-c3ccc4cc5ccccc5cc4c3)c(C)cc2c1"
Result: < 1

Q: // returns reported selectivity ratio for input "COc1cc(OC)c2c(C)[n+](-c3ccc(C)cc3C)c(C)cc2c1"
Result: 1.24

Q: // returns reported selectivity ratio for input C[C@@H]1[C@H](O)[C@@H](C)/C=C/C=C/C=C/C=C/C=C/C=C/C=C/[C@H](O[C@@H]2O[C@H](C)[C@@H](O)[C@H](N)[C@@H]2O)C[C@@H]2O[C@](O)(C[C@@H](O)C[C@@H](O)[C@H](O)CC[C@@H](O)C[C@@H](O)CC(=O)O[C@H]1C)C[C@H](O)[C@H]2C(=O)O [AMPHOTERICIN B]
Result: > 14

Q: // returns reported selectivity ratio for input "COc1cc(OC)c2c(C)[n+](-c3ccc(Br)cc3)c(C)cc2c1"
Result: < 1

Q: // returns reported selectivity ratio for input "COc1cc(OC)c2c(C)[n+](-c3ccc(C(C)C)cc3)c(C)cc2c1.O=C([O-])C(F)(F)F"
Result: 6.55

Q: // returns reported selectivity ratio for input "COc1cc(OC)c2c(C)[n+](-c3cccc(C)c3C)c(C)cc2c1"
Result: < 1

Q: // returns reported selectivity ratio for input "COc1cc(OC)c2c(C)[n+](-c3cccc4cc5ccccc5cc34)c(C)cc2c1"
Result: < 1
